Please respond with reported Plant response rating, Morningglory for every item in the list.
Test system: morningglory
Assay: Test A postemergence
Format: in vivo, Ipomoea spp.
Details: 125 g ai/ha, 0 to 100 scale where 0 is no effect and 100 is complete control

Examples from the recorded data:
Cc1cnn(-c2c(C#N)cccc2Oc2ncc(Cl)cn2)c1 : 60
Brc1cnc(Oc2ccccc2-n2ccc(Br)n2)nc1 : 40
N#Cc1cccc(Oc2ncc(Cl)cn2)c1-n1cc(OC(F)F)cn1 : 90

Consider now this further compound.
Field request: Plant response rating, Morningglory | item: "CC=Cc1cnn(-c2ccccc2Oc2ncc(Cl)cn2)c1" 10

---

System: lambsquarters
Test: Test C postemergence
Assay type: in vivo, Chenopodium album
Settings: 125 g ai/ha, postemergence; visual rating, scale 0 to 100 (0 no effect, 100 complete control)
For each record, write down the corresponding Plant response rating, Lambsquarters.
Give bare numbers.

Consider the worked cases shown below.
Clc1cnc(Oc2cccc(Br)c2-n2cc(I)nn2)nc1 [Compound 117] : 75
Cc1cnc(Oc2cccc(C#N)c2-n2cc(C(F)(F)F)cn2)nc1 [Compound 180] : 85
Clc1cnc(Oc2ccccc2-n2cc(Br)nn2)nc1 [Compound 223] : 95

Would you kindly look at the next entry?
Consider the compound shown here: N#Cc1cn(-c2c(C#N)cccc2Oc2ncc(Cl)cn2)nn1 [Compound 273] What is its recorded Plant response rating, Lambsquarters? 80

---

Test system: galium
Assay: Test C preemergence
Assay type: in vivo, Galium aparine
Settings: 125 g ai/ha, preemergence; scale 0 (no effect) to 100 (complete control)
Give Galium plant response rating for every item shown.
Numbers only.

N#Cc1cnn(-c2c(Oc3ncc(F)cn3)cccc2C(F)F)c1 [Compound 240] : 100
Fc1cnc(Oc2cccc(C(F)F)c2-n2cc(C(F)(F)F)cn2)nc1 [Compound 164] : 95

I have 3 compounds here; please give me Galium plant response rating for each one.
1. CC(C)c1cnn(-c2c(C#N)cccc2Oc2ncc(Cl)cn2)c1 [Compound 85]
2. N#Cc1cccc(Oc2ncc(Cl)cn2)c1-n1cc(OC(F)F)cn1 [Compound 97]
3. FC(F)c1cccc(Oc2ncc(Cl)cn2)c1-n1cc(C(F)(F)F)cn1 [Compound 170]

85
95
100

---

System: corn
Test: Test A postemergence
Type: in vivo, Zea mays
Conditions: 1000 g ai/ha, 0 to 100 scale, 0 no effect, 100 complete control
Please go through the items and note down their Plant response rating, Corn.

The cases that follow already have their Plant response rating, Corn on record.
NS(=O)(=O)c1cnn(-c2ccccc2Oc2ncc(Cl)cn2)c1 : 50
Clc1cnc(Oc2cccc(I)c2-n2cc(Br)cn2)nc1 : 40
FCc1cn(-c2ccccc2Oc2ncc(Cl)cn2)nn1 : 70

Quick check: Plant response rating, Corn of "CCNC(=O)c1cccc(Oc2ncc(Cl)cn2)c1-n1cc(C(F)(F)F)cn1" ? 0

---

Test system: ragweed
Experiment: Test C postemergence
Assay type: in vivo, Ambrosia elatior
Conditions: Postemergence, 62 g ai/ha; scale 0 to 100 (0 no effect, 100 complete control)
reported_endpoint: Plant response rating, Ragweed

Some solved entries appear below for comparison.
FCc1cn(-c2ccccc2Oc2ncc(Cl)cn2)nn1 : 70
Fc1cnc(Oc2cccc(C(F)F)c2-n2cc(C(F)(F)F)cn2)nc1 : 60
Fc1cnc(Oc2cccc(C(F)F)c2-n2cc(Cl)cn2)nc1 : 55
N#Cc1cccc(Oc2ncc(Br)cn2)c1-n1cc(Br)cn1 : 40

Proceed to the following item.
Using the record for "Clc1cnc(Oc2cccc(Cl)c2-n2cc(I)cn2)nc1" , report its Plant response rating, Ragweed. 30

---

System: galium
Experiment: Test C preemergence
Format: in vivo, Galium aparine
Settings: 16 g ai/ha, preemergence; scale 0 to 100 (0 no effect, 100 complete control)
reported_endpoint: Galium plant response rating
Give bare numbers.

Go through the items and report each one's Galium plant response rating.
1. FC(F)Oc1cnn(-c2c(Cl)cccc2Oc2ncc(Cl)cn2)c1 [Compound 258]
2. Cc1cnc(Oc2cccc(C#N)c2-n2cc(C(F)(F)F)cn2)nc1 [Compound 180]
3. Fc1cnc(Oc2cccc(C(F)F)c2-n2cc(C(F)(F)F)cn2)nc1 [Compound 164]
4. N#Cc1cnn(-c2c(C#N)cccc2Oc2ncc(Br)cn2)c1 [Compound 135]

[80, 80, 75, 0]

For each entry beneath this line, provide reported Galium plant response rating.
1. N#Cc1cccc(Oc2ncc(Cl)cn2)c1-n1cc(OC(F)F)cn1 [Compound 97]
2. Fc1cnc(Oc2cccc(C(F)F)c2-n2cc(Cl)cn2)nc1 [Compound 94]

1: 85; 2: 80

---

Tested on: pigweed
Assay: Test A postemergence
Type: in vivo, Amaranthus retroflexus
Conditions: 31 g ai/ha, 0 to 100 scale, 0 no effect, 100 complete control
Values of Plant response rating, Pigweed strictly less than 50 map to y, and values of at least 50 map to n.

These solved cases illustrate the format of a correct answer.
FC(F)(F)Sc1cnn(-c2ccccc2Oc2ncc(Br)cn2)c1 : y
CCCOc1cnn(-c2c(F)cccc2Oc2ncc(F)cn2)c1 : y

Input "N#Cc1cnn(-c2c(Br)cccc2Oc2ncc(Cl)cn2)c1" ; condition: Plant response rating, Pigweed strictly below 50. Does it hold? n

Lab log: compare recorded Plant response rating, Pigweed with 50; is it strictly lower for "Fc1cccc(Oc2ncc(Cl)cn2)c1-n1cc(OC(F)F)cn1" ? n

---

Test system: yellow nutsedge
Experiment: Test C postemergence
Type: in vivo, Cyperus esculentus
Settings: 31 g ai/ha, postemergence; visual rating, scale 0 to 100 (0 no effect, 100 complete control), 13 to 15 days
reported_endpoint: Nutsedge, Yellow plant response rating

Clc1cnc(Oc2cccc(Cl)c2-n2cc(I)cn2)nc1 : 0
Clc1cnc(Oc2cccc(Cl)c2-n2cc(Cl)cn2)nc1 : 0
Clc1cnc(Oc2cccc(Br)c2-n2cc(Cl)cn2)nc1 : 0
Fc1cccc(Oc2ncc(Cl)cn2)c1-n1cc(Cl)cn1 : 5

Now, please, on to the next compound.
# query: Nutsedge, Yellow plant response rating of entry "Clc1cnc(Oc2ccccc2-n2cc(C3CC3)nn2)nc1" 5

---

Test system: galium
Assay: Test C postemergence
Type: in vivo, Galium aparine
Conditions: Galium, post-emergence; Postemergence, 62 g ai/ha; scale 0 to 100 (0 no effect, 100 complete control); read-out: Plant response rating, Galium
For each record, write down the corresponding pest or weed control at 62 g/ha.

The examples below pair each entry with its known result.
Clc1cnn(-c2ccccc2Oc2ncc(Br)cn2)c1 [Compound 5] : 70%
Clc1cnc(Oc2ccccc2-n2cc(C3CC3)nn2)nc1 [Compound 160] : 95%
Fc1cccc(Oc2ncc(Cl)cn2)c1-n1cc(C(F)F)nn1 [Compound 141] : 98%

What does the record list as pest or weed control at 62 g/ha for N#Cc1cccc(Oc2ncc(F)cn2)c1-n1cc(C(F)(F)F)cn1 [Compound 79] ? 75%

---

I'd be grateful if you could share measured Plant response rating (0 to 100), Velvetleaf for these entries.
System: velvetleaf
Assay: Test C postemergence
Type: in vivo, Abutilon theophrasti
Settings: 125 g ai/ha, postemergence
Numbers only.

N#Cc1cccc(Oc2ncc(Cl)cn2)c1-n1cc(Cl)cn1 : 55
FC(F)Oc1cnn(-c2ccccc2Oc2ncc(Cl)cn2)c1 : 90
Fc1cnc(Oc2ccccc2-n2cc(C(F)(F)F)cn2)nc1 : 70
N#Cc1cccc(Oc2ncc(Cl)cn2)c1-n1cc(OC(F)F)cn1 : 70

// moving on: another record for Plant response rating (0 to 100), Velvetleaf
Value lookup for Plant response rating (0 to 100), Velvetleaf; key = "N#Cc1cccc(Oc2ncc(Br)cn2)c1-n1cc(Br)cn1" 40

---

Tested on: sedge, umbrella
Assay: Test B flooded paddy test
Type: in vivo, Cyperus difformis
Conditions: Flood, 250 g ai/ha; 0 to 100 scale where 0 is no effect and 100 is complete control
reported_endpoint: Plant response rating, Sedge, Umbrella
Give bare numbers.

N#Cc1cccc(Oc2ncc(I)cn2)c1-n1cc(I)cn1 [Compound 87] : 0
FC(F)c1cnn(-c2c(Cl)cccc2Oc2ncc(Cl)cn2)c1 [Compound 192] : 85
Fc1cnc(Oc2cccc(Cl)c2-n2cc(OC(F)F)cn2)nc1 [Compound 101] : 0

Continue with the next compound.
Report Plant response rating, Sedge, Umbrella for N#Cc1cccc(Oc2ncc(Cl)cn2)c1-n1cc(SC(F)(F)F)cn1 [Compound 143] please. 0

---

Please go through the items and note down their Plant response rating, Ryegrass, Italian.
Tested on: Italian ryegrass
Experiment: Test C postemergence
Format: in vivo, Lolium multiflorum
Settings: 125 g ai/ha, postemergence; visual rating, scale 0 to 100 (0 no effect, 100 complete control)

N#Cc1cnn(-c2c(C#N)cccc2Oc2ncc(Cl)cn2)c1 : 5

Each compound below has a recorded value; state its Plant response rating, Ryegrass, Italian.
1. Fc1cccc(Oc2ncc(Cl)cn2)c1-n1cc(Cl)cn1
2. Fc1cnc(Oc2cccc(C(F)F)c2-n2cc(C(F)(F)F)cn2)nc1
3. FC(F)(F)c1cnn(-c2c(Br)cccc2Oc2ncc(Cl)cn2)c1
4. Clc1cnc(Oc2cccc(Cl)c2-n2cc(Cl)cn2)nc1
5. Clc1cnc(Oc2ccccc2-n2cc(Br)nn2)nc1

[0, 0, 5, 10, 5]
